Tested on: A549
Test: Cytotoxicity against human A549 cells by SRB assay
Assay type: functional, cell-based
RESULT TYPE: pIC50
Answers are plain numbers, as −log10 of the molar value.

Below are worked cases with known answers.
C=Cc1ccccc1-c1c(Br)c2cc(C)ccc2c(=O)n1C ... 4.31
Cc1ccc2c(=O)n(C)c(-c3ccccc3C=O)c(Br)c2c1 ... 4.43
COc1ccc(Cn2c(-c3ccccc3C=O)c(Br)c3cc(C)ccc3c2=O)cc1 ... 4.73
COc1ccc(Cn2c3c(c4cc(C)ccc4c2=O)C(C)c2ccccc2-3)cc1 (stereo not given) ... 5.42
C=Cc1ccccc1-c1c(Br)c2cc(C)ccc2c(=O)n1Cc1ccc(OC)cc1 ... 4.07

Quick request: pIC50 for each listed item, please.
1. Cn1c(-c2ccccc2C=O)c(Br)c2ccccc2c1=O
2. CC[C@@]1(O)C(=O)OCc2c1cc1n(c2=O)Cc2cc3ccccc3nc2-1
3. CC1c2ccccc2-c2c1c1ccccc1c(=O)n2C (stereo not given)

Result:
1. 4.22
2. 7.16
3. 5.59
